Attribution: ChEMBL document CHEMBL4673287

# tgt: 5-hydroxytryptamine receptor 2A (Homo sapiens, UniProt P28223)
# Sequence (P28223 whole entry): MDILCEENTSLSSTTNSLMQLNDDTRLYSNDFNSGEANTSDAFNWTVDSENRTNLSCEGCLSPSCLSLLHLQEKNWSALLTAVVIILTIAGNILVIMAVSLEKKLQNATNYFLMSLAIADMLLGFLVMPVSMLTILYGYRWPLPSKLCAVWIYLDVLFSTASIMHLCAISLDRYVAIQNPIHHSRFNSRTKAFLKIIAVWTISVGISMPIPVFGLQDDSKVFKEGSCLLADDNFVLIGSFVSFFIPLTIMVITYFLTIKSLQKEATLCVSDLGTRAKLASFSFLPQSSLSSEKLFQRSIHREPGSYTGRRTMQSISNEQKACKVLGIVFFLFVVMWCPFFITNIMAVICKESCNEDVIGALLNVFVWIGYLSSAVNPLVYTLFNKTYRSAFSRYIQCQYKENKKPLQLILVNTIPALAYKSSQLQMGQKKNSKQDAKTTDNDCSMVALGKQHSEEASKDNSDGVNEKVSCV
# testProtocol: Displacement of [3H]ketanserin from recombinant human 5-HT2A receptor expressed in human HEK293 cells at 10 uM relative to control
# Assay type: cell-based
readoutType: inhibition (%)

C[C@H]1CN(CC[C@H]2CC[C@H](NC(=O)[C@@H]3CCCO3)CC2)CCc2ccc(Cl)cc21; 69.6
CCCC(=O)N[C@H]1CC[C@H](CCN2CCc3ccc(Cl)cc3[C@@H](C)C2)CC1; 52.7
C[C@@H]1CN(CC[C@H]2CC[C@H](NC(=O)N(C)C)CC2)CCc2ccc(Cl)cc21; 72
C[C@H]1CN(CC[C@H]2CC[C@H](NC(=O)N3CCOCC3)CC2)CCc2ccc(Cl)cc21; 50.6
C[C@H]1CN(CC[C@H]2CC[C@H](NC(=O)[C@@H]3CCCN3)CC2)CCc2ccc(Cl)cc21; 89
CC1CN(CC[C@H]2CC[C@H](NC(=O)N(C)C)CC2)CCc2ccc(Cl)cc21 (mixture of isomers); 19.6
C[C@H]1CN(CC[C@H]2CC[C@H](N3C(=O)[C@H]4CCCC[C@H]4C3=O)CC2)CCc2ccc(Cl)cc21; 76.9
C[C@H]1CN(CC[C@H]2CC[C@H](NC(=O)C3CCCCC3)CC2)CCc2ccc(Cl)cc21; 38.2
